experiment: Components of the Cytosolic LPS Sensing Pathway: Gene Identification via Genome-wide siRNA Screen; conditions: RAW264.7 macrophages, IL-1a HTRF, actives lie on both sides, screened at 100 nM (by protocol), cells primed 5 h with Pam3CSK4 first;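 further: robust z of the log signal after scaling to non-targeting control siRNA wells of the plate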
Out of some 53,000 sequences screened, about 3,700 (7%) were called active. The entries come from a sample that favours actives as a whole.
Outcome measure: z-score
Numbers only.

Below, 6 sequences whose answers are already recorded.
CCCAAUACAUGAGCUUCUGTT against Ch25h
-0.209
GGUUCAGUUUGCCAAAGACTT against Elfn1
1.45
GGAAUCAUAUCAGAAACUATT against Pde4b
-0.475
GGCAUAGUGAAUUUAGUCUTT against Iqub
0.526
GGAACUGCUCGACAAAGCUTT against Primpol
-2.53
GCCAGGAGUCCUUUAGGAATT against Tmem159
-0.184

For each of the sequences below, state z-score.
1. GGGUAAAGGAGAUUGUGAUTT against Ppfibp2
2. GCGUUUCACGUACCUUCCUTT against Nfatc1

1. -0.103
2. 1.22

// input: 4 sequences below; output: z-score for each
1. CUCUAGUGUUACACUUAUUTT against Tefm
2. CCGUGGCGUAUGUGAUCAATT against Map3k5
3. GGCACAAACUAGAUGCAGATT against Ccdc68
4. GGUUCUUUCCAAACAAGAGTT against Evc

2.83
-0.249
-0.669
1.1

###

experiment: Components of the Cytosolic LPS Sensing Pathway: Gene Identification via Genome-wide siRNA Screen; conditions: RAW264.7 macrophages, IL-1a HTRF, actives lie on both sides, screened at 100 nM (by protocol), cells primed 5 h with Pam3CSK4 first;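 further: robust z of the log signal after scaling to non-targeting control siRNA wells of the plate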
Screen size: about 53,000 sequences; about 3,700 (7%) were called active. The sample as a whole holds a higher share of actives than the screen did.
Outcome measure: z-score

Study these solved cases before continuing.
GGCAUUUUUCGGAUUGACATT against Mmp27
-0.807 (inactive)
GGAAGAUGCCAUCUUACACTT against Borcs7
2.5 (active)
GGAACCGCUGAUGCUUAAGTT against Ctsl
-0.726 (inactive)

Fill in z-score for each of the 6 sequences listed.
1. UCAACAGGGCUGAUAUCCCTT against Acsl5
2. GGACAAAGAGAAUGAUGGATT against Cdc25b
3. GGCUUUCAAGAGCAAUCCCTT against Man2b2
4. GCAAUAGGCAAUCUGGGAUTT against Olfr52
5. GGAGGAGACUCAGCAGAUUTT against Gzmn
6. GGGAAAACCGAAUAAAGAUTT against Ren2

1: -1.61 (inactive); 2: -1.68 (inactive); 3: -2.21 (active); 4: 0.504 (inactive); 5: 2.29 (active); 6: -1.51 (inactive)

Hey, quick one: what's z-score for each of these?
1. GGUAAGUUAAAUGAUGACATT against Ccdc148
2. GCUCAACCUAACUUUGUGGTT against Ccdc3
3. GGGAGAUUCAUUUUCCCAGTT against Rnf43

1: -0.896 (inactive); 2: 0.421 (inactive); 3: 0.0663 (inactive)

###

test: Components of the Cytosolic LPS Sensing Pathway: Gene Identification via Genome-wide siRNA Screen; conditions: RAW264.7 macrophages, IL-1a HTRF, actives lie on both sides, screened at 100 nM (by protocol), cells primed 5 h with Pam3CSK4 first;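 further: robust z of the log signal after scaling to non-targeting control siRNA wells of the plate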
Out of some 53,000 sequences screened, about 3,700 (7%) were called active.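 How the source made its calls: active means gene knockdowns whose robust z-score for IL-1 alpha signal is at least 2 or at most -2, so actives lie on both sides; inactive means the rest.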 The entries come from a sample that favours actives as a whole.
Hi there, use one of these labels in your reply, thanks! t (active), f (inactive)

Use these answered entries as a reference point.
CCUUCUGCGGCUCAGUCUATT against Bach2os
f
GGCAAGAUCUUCAAGUGAATT against Eef1g
f
GGCAGACAUCACAAUGGCUTT against Hemgn
f
CCUCAUUCAGGGAGUUCCATT against 2200002J24Rik
f
GGUGCUGCUAGUGAACAAGTT against E2f4
t

Kindly provide the recorded test outcome for the following sequence: GGAACUGGACUUAUUCCACTT against Wnt5b
f

Another sequence to check: GGGUGACAGGGCAUGAGAATT against Macroh2a3
f

Thanks! And CCAGACGAGGAGAACAUCATT against Samd4b ?
f

Would you kindly repeat that for CCUCUCCAACAACCAACUATT against Lrrc47 ?
f

Queued: GGUUGUGAAUGUAAGUGAGTT against Entpd1
f

Try the sequence GGAUUUCAAACACGUCUUUTT against Asic5
f

Record: GGCUCUCUUCGGGAAUACUTT against Tmem234
f

Try GGUAUUUAGUAAACACCCATT against Edar next.
f

Can you check GCUACGAGAUUCUUGUUGCTT against Taar3 next?
f

What would you report for GCUUGAUGACUCUAAACCUTT against Runx2 ?
f

Can you check GCUUCACCUGACAAUGACUTT against Tsc22d3 next?
f

Further, for GGUGAUGCUGGAAUCUUCCTT against Svop ?
f

Try CCUACCCAAACCUACUAAATT against Gpt2 next.
f

// next record CCUAAUGGUUCAGGAUACGTT against Pcdhb5
f

And for GGGACAAGGCCUCGAUAUUTT against Ggps1 ?
f

What about GGUUCACAGAAAUGGAUGATT against Zfp507 ?
t

Now the same for GGACUUUGUAACUAAUACCTT against Slco2b1
f

Note, next up: GGACACAAGCCUAUUCCAATT against Rffl
f

Entry GGUUGAUUCUUAAAUUGUGTT against Slc6a5 please
f

Further, for GGGCACUGGAACAGAUUUUTT against Ccnh ?
t
